Tested on: cyclooxygenase
ASSAY NAME: Formation of prostaglandin D2 by neutrophils (measure of cyclooxygenase activity), A23187 stimulated, RIA
Format: cell-based, Sprague-Dawley rats
SETTINGS: rat peritoneal neutrophils (lambda-carageenan), 5 min preincubation at 37° C., A23187 2 μmol/l, read-out: IC50 PGD2
pIC50: −log10 of the molar value.
QUANTITY MEASURED: pIC50

Solved cases below.
                            compound_string     target_desc  quantity_measured  result
0  CN1C(C(=O)Nc2nc(-c3ccc(Oc4ccc(F)cc4)o3)cs2)=C(O)c2sc(Cl)cc2S1(=O)=O  cyclooxygenase              pIC50    5.47
1  CN1C(C(=O)Nc2nc(-c3cc4ccccc4o3)cs2)=C(O)c2sc(-c3ccco3)cc2S1(=O)=O  cyclooxygenase              pIC50    7.41
2  CN1C(C(=O)Nc2nc(-c3cc4ccccc4s3)co2)=C(O)c2sc(Cl)cc2S1(=O)=O  cyclooxygenase              pIC50    6.72
3  CN1C(C(=O)Nc2nc(-c3ccc(-c4ccc(F)cc4)o3)cs2)=C(O)c2sc(-c3ccco3)cc2S1(=O)=O  cyclooxygenase              pIC50    5.80
4  CN1C(C(=O)Nc2cccc(-c3cc4ccccc4o3)n2)=C(O)c2sc(-c3ccco3)cc2S1(=O)=O  cyclooxygenase              pIC50    7.41

A = CN1C(C(=O)Nc2ccccn2)=C(O)c2sc(-c3ccccc3)cc2S1(=O)=O
B = CN1C(C(=O)Nc2nc(-c3ccc(Oc4ccc(F)cc4)o3)cs2)=C(O)c2sc(-c3ccco3)cc2S1(=O)=O
Response body: label of entry with the larger pIC50; valid values A , B . Identify your pick by its label.
A
